compounds and their reported pKi
target: Cathepsin B (Homo sapiens); assay: Inhibition of human liver cathepsin B using Abz-Gly-Ile-Val-Arg-Ala-Lys(Dnp)-OH as substrate at pH 4.5 incubated for 30 mins measured for 10 mins by […]
pKi: −log10 of the molar value.

Cpd smiles: COC(=O)Cn1cc(COC[C@@H](C#N)NC(=O)[C@H](Cc2cccc(Br)c2)NC(=O)c2ccc(-c3ccccc3)cc2)nn1
pKi: 6.88

Cpd smiles: N#C[C@H](COCc1cn(CC(=O)O)nn1)NC(=O)[C@H](Cc1cccc(Br)c1)NC(=O)c1ccc(-c2ccccc2)cc1
pKi: 7.72

Cpd smiles: N#C[C@H](Cc1cn(CC(=O)O)nn1)NC(=O)[C@H](Cc1cccc(Br)c1)NC(=O)c1ccc(-c2ccccc2)cc1
pKi: 6.43

Cpd smiles: N#CCNC(=O)[C@H](Cc1cccc(Br)c1)NC(=O)c1ccc(-c2ccccc2)cc1
pKi: 6.66

---

target: Cathepsin B (Homo sapiens); assay: Inhibition of human liver cathepsin B using Cbz-Arg-Arg-pNA as substrate at pH 6 incubated for 30 mins measured for 20 mins by photometrical analysis
pKi: −log10 of the molar value.
compounds and their reported pKi

Cpd smiles: CC(C)(C)OC(=O)N[C@@H](Cc1cccc(-c2ccccc2)c1)C(=O)NCC#N
Target or test system: Cathepsin B (Homo sapiens)
pKi: 5.27
//
Cpd smiles: N#CCNC(=O)[C@H](CC1CCCCC1)NC(=O)c1ccc(-c2noc(-c3cccs3)n2)cc1
Target or test system: Cathepsin B (Homo sapiens)
pKi: < 6.48
//
Cpd smiles: COc1ccc(C[C@H](NC(=O)OCc2ccccc2)C(=O)NCC#N)cc1
Target or test system: Cathepsin B (Homo sapiens)
pKi: < 6.48
//
Cpd smiles: N#C[C@H](COCc1cn(CC(=O)O)nn1)NC(=O)[C@H](Cc1ccccc1)NC(=O)OCc1ccccc1
Target or test system: Cathepsin B (Homo sapiens)
pKi: 4.62
//
Cpd smiles: N#CCNC(=O)[C@@H](N)Cc1ccccc1
Target or test system: Cathepsin B (Homo sapiens)
pKi: < 6.48
//
Cpd smiles: CC(C)(C)OC(=O)N[C@@H](Cc1ccc(F)cc1)C(=O)NCC#N
Target or test system: Cathepsin B (Homo sapiens)
pKi: < 6.48
//
Cpd smiles: CC[C@H](NC(=O)OC(C)(C)C)C(=O)NCC#N
Target or test system: Cathepsin B (Homo sapiens)
pKi: < 6.48
//
Cpd smiles: CSCC[C@@H](C#N)NC(=O)[C@H](Cc1ccccc1)NC(=O)OC(C)(C)C
Target or test system: Cathepsin B (Homo sapiens)
pKi: < 6.48
//
Cpd smiles: N#CCNC(=O)[C@H](Cc1cccc(Br)c1)NC(=O)c1ccc(-c2ccccc2)cc1
Target or test system: Cathepsin B (Homo sapiens)
pKi: 6.92
//
Cpd smiles: CN(CC#N)C(=O)[C@H](Cc1ccccc1)NC(=O)OCc1ccccc1
Target or test system: Cathepsin B (Homo sapiens)
pKi: < 6.48

---

target: Cathepsin B (Homo sapiens, UniProt P07858); experiment: Inhibition of human liver cathepsin B using Cbz-Arg-Arg-pNA as substrate at pH 6 incubated for 30 mins measured for 20 mins by photometrical analysis
molecules and their reported Ki

Cpd smiles: CSCC[C@@H](C#N)NC(=O)[C@H](CC1CCCCC1)NC(=O)OC(C)(C)C
Target or test system: Cathepsin B (Homo sapiens, UniProt P07858)
Quantity unit: nM
Qual: >
Ki: 330
//
Cpd smiles: CC(C)(C)OC(=O)N1CCC[C@H]1C(=O)NCC#N
Target or test system: Cathepsin B (Homo sapiens, UniProt P07858)
Quantity unit: nM
Qual: >
Ki: 330
//
Cpd smiles: CSCC[C@@H](C#N)NC(=O)[C@H](CC(C)C)NC(=O)c1ccc(-c2ccccc2)cc1
Target or test system: Cathepsin B (Homo sapiens, UniProt P07858)
Quantity unit: nM
Qual: =
Ki: 330
//
Cpd smiles: CC(C)C[C@H](NC(=O)OC(C)(C)C)C(=O)NCC#N
Target or test system: Cathepsin B (Homo sapiens, UniProt P07858)
Quantity unit: nM
Qual: =
Ki: 94000
//
Cpd smiles: CSCC[C@H](NC(=O)OC(C)(C)C)C(=O)NCC#N
Target or test system: Cathepsin B (Homo sapiens, UniProt P07858)
Quantity unit: nM
Qual: >
Ki: 330
//
Cpd smiles: N#CCNC(=O)[C@H](Cc1cccc(-c2ccccc2)c1)NC(=O)c1ccc(-c2ccccc2)cc1
Target or test system: Cathepsin B (Homo sapiens, UniProt P07858)
Quantity unit: nM
Qual: =
Ki: 1230
//
Cpd smiles: CC(C)(C)OC(=O)N[C@@H](Cc1cccc(Br)c1)C(=O)NCC#N
Target or test system: Cathepsin B (Homo sapiens, UniProt P07858)
Quantity unit: nM
Qual: =
Ki: 5170
//
Cpd smiles: CC(C)(C)OC(=O)N[C@@H](Cc1ccccc1)C(=O)N[C@H](C#N)CC#N
Target or test system: Cathepsin B (Homo sapiens, UniProt P07858)
Quantity unit: nM
Qual: >
Ki: 330
//
Cpd smiles: CC(C)C[C@H](NC(=O)Nc1ccc(-c2noc(-c3cccs3)n2)cc1)C(=O)NCC#N
Target or test system: Cathepsin B (Homo sapiens, UniProt P07858)
Quantity unit: nM
Qual: >
Ki: 330
//
Cpd smiles: CC(C)C[C@H](NC(=O)c1ccc(-c2noc(-c3cccs3)n2)cc1)C(=O)NCC#N
Target or test system: Cathepsin B (Homo sapiens, UniProt P07858)
Quantity unit: nM
Qual: >
Ki: 330
